Values compiled from patent US20220104493A1.

Tested on: Ipomoea hederacea (IPOHE)
MEASUREMENT PROTOCOL: Post-emergence efficacy, Method A
Assay type: in vivo
COND: 500 g/Ha, 100=total damage to plant, 0=no damage, evaluated after 7 and 14 days, read-out: Control of weed species after post-emergence application, IPOHE
Please assign 0.0 whenever pest or weed control at 500 g/ha is at or above 20%, and 1.0 whenever it is below.

COMPOUND	STUDY SYSTEM	CLASS NAME
O=S(=O)([O-])C[n+]1ccc(-c2ncco2)cc1	Ipomoea hederacea (IPOHE)	1.0
CC([n+]1ccc(-c2ncns2)cc1)S(=O)(=O)[O-] (centres unmarked)	Ipomoea hederacea (IPOHE)	0.0
O=S(=O)([O-])CC[n+]1ccc(-c2ccno2)cc1	Ipomoea hederacea (IPOHE)	1.0
O=S(=O)([O-])CC[n+]1ccc(-c2nc(C(F)(F)F)ns2)cc1	Ipomoea hederacea (IPOHE)	0.0
